Test system: COLO 205
ASSAY_PROTOCOL: NCI tumour cell line growth inhibition, 48 h
Activity calls are given as the source filed them. Cut-off read from the data, not from the text of the source: active = GI50 up to about 1.1 µM and inactive = higher.
METRIC: GI50

Which GI50 value belongs to `CNc1nc(=S)[nH]c2sc3c(c12)CCCC3` ? > 75 µM (inactive)

For O=C(Nc1cc(Cl)ccc1Cl)C(=O)C(c1cnc2ccccc2n1)[N+](=O)[O-] (stereo not given) then? > 100 µM (inactive)

For COc1cc2c(cc1OC)C(SC)C(=O)N(Cc1cccc(OC)c1OC)CC2 (stereo not given) then? 2.74 µM (inactive)

For C=CC1(C)CC(=O)C2(O)C(C)(O1)C(OC(C)=O)C(O)C1C(C)(C)CCC(O)C12C (stereo not given) then? 104 µM (inactive)

For `COc1ccc(C=O)cc1OS(=O)(=O)C(F)(F)C(F)(F)C(F)(F)C(F)(F)F` then? 24.5 µM (inactive)

Next:
Which GI50 value belongs to `Cc1ccc(S(=O)(=O)NCCN(CCNS(=O)(=O)c2ccc(C)cc2)S(=O)(=O)c2ccc(C)cc2)cc1` ? > 100 µM (inactive)

For COC1C(OC(=S)Nc2ccccc2)c2ccccc2N1C(C)=O (stereo not given) then? > 100 µM (inactive)

For `CSC(SC)=C(C(=O)O)P(=O)(O)O` then? > 100 µM (inactive)

For CC1CN1c1c(C(=O)/C=C/c2ccc(F)cc2)c(-c2ccccc2)nn(C)c1=O (stereo not given) then? 18.5 µM (inactive)

For `C=CCOc1ccc(C2(c3ccc(OCC=C)cc3)C(=O)Nc3ccccc32)cc1` then? 7.19 µM (inactive)

###

System: OVCAR-4
ASSAY_PROTOCOL: NCI tumour cell line growth inhibition, 48 h
The source made the active and inactive calls. No stated cut-off is given here; in the data, active = GI50 up to about 1.1 µM and inactive = higher. Square brackets hold non-standard residues; d marks the D form. Peptide text beside a SMILES is read from it. * marks the point of attachment. X26 = COC1=CC(=O)N(C(=O)[C@@H](O*)C(C)C)[C@H]1Cc1ccccc1; NMeL = CN[C@@H](CC(C)C)C(=O)O; Hexanoyl = CCCCCC(=O)*
Field 'call' accepts 1 for active, -1 for inactive

The following compounds have reported results that may help.
How did this test come out for C=CCOc1cccc(C2(O)c3ccccc3C3=NCCCN32)c1 (stereo not given) ? -1

For CCCCCC(=O)N[C@H](C(=O)N[C@H](C(=O)N(C)[C@@H](CC(C)C)C(=O)N1CCC[C@H]1C(=O)N1CCC[C@H]1C(=O)O[C@H](C(=O)N1C(=O)C=C(OC)[C@@H]1Cc1ccccc1)C(C)C)C(C)C)C(C)C (Hexanoyl-VV[NMeL]PP-X26) then? -1

For `COC(=O)CCC1(O)C=CC(=O)C=C1` then? -1

For `c1ccc(OCc2nnc3n2N=C(c2ccccc2)CS3)cc1` then? -1

For `CC(=O)N(C(C)=O)n1c(Cc2ccc(Cl)cc2)n[nH]c1=O` then? -1

Next:
How did this test come out for `CSC1=Nc2ccccc2N=C(c2ccccc2)C1` ? -1

For `CCC1=[N+]([O-])C(C)(C)NC1(C)C` then? -1

For `Cc1[nH]n(-c2ccc(S(=O)(=O)O)cc2)c(=O)c1/N=N/c1ccccc1` then? -1

For `Cc1nc(Nc2ccc(Cl)cc2)sc1C(=O)NNC(=O)C(=O)NN` then? -1

For O=C(OCC1CO1)c1cccs1 (stereo not given) then? -1

For `O=C(Nc1ccc([N+](=O)[O-])cc1)Nn1cnnc1` then? -1

For O=C(O)CCC(NC(=O)c1ccc(Nc2nc3cc(C(F)(F)F)ccc3nc2-c2ccccc2)cc1)C(=O)O (stereo not given) then? -1
